- procedure_details: melting temperature; fluorescence melt of hairpins on a sequencing array, two-state fit, raised by 9.35 °C to match UV melts
- details: sodium 0.088 M
Parameter class (string): assigned from measured Tm. Ranges: group A (below 40 °C), group B (40 °C to below 50 °C), group C (50 °C or more)

# example entries with known answers
Where would GATCACACAGTGATC ((((((...)))))) land among the classes by reported Tm?
group C

Same thing, different sequence: GATCTGGTTACAGATC ((((((....))))))
group C

Try this sequence next: GCTATCGGAAACGATAGC (((((((....)))))))
group C

Now the sequence GATCATAGAGATGATC ((((((....))))))
group B

How about this sequence: CGAACGGAAACGTGTTCG ((((((....)))..)))
group B

---
Which of the defined bands does the recorded Tm of GGGTTCGAAAGAATTCCC ((((((....)))..))) sit within?
group A

Same question, GGACCTCCGAAAGGATCC (((..(((....)))))) this time
group A

Field entry: GGTATCCCGAAAGGGACC (((..(((....))))))
group A
